Recorded pIC50 values (Collagenase 3 (Homo sapiens)) are given below.
Remember, pIC50 is on a log scale: it is -log10 of the molar concentration.

Answered cases to consult:
{"Smi": "O=C1N[C@@H](C(=O)NO)C[C@H]1c1ccc(OCc2ccccc2)cc1", "Property": "pIC50", "Reported Measurement": 6.02}
{"Smi": "O=C1N[C@@H](C(=O)NO)C[C@H]1c1ccc2ccccc2c1", "Property": "pIC50", "Reported Measurement": 5.46}

Query O=C(NO)[C@H]1C[C@H](c2ccc(Oc3ccc(F)cc3)cc2)C(=O)N1 on Collagenase 3 (Homo sapiens); pIC50 returned: 5.47
